Target: human cathepsin F (Homo sapiens)
Experiment: Cathepsin F assay (hCat F)
Assay type: biochemical
Details: Z-Phe-Arg-AMC substrate, pH 5.5, 15 min preincubation; read-out: hCat F (IP (nM))
quantity name: IC50
Report as: number unit

# compound, IC50
measured = [
    ("CC(Oc1ccc(-c2nc([C@@H]3CCCC[C@H]3C(=O)NC3(C#N)CC3)c(-c3ccc(N4CCS(=O)(=O)CC4)cc3)s2)cn1)C(F)(F)F (mixture of isomers)", "3330 nM"),
    ("N#CC1(NC(=O)[C@@H]2CCCC[C@H]2c2nc(-c3cncc(Cl)c3)sc2-c2ccc(N3CCS(=O)(=O)CC3)cc2)CC1", "650 nM"),
]

// "N#CC1(NC(=O)[C@@H]2CCCC[C@H]2c2nc(NC3CCCCC3)sc2-c2ccc(N3CCS(=O)(=O)CC3)cc2)CC1" : IC50 value = 1000 nM

* * *

Biological target: human cathepsin F (Homo sapiens, UniProt Q9UBX1)
Assay: Cathepsin F assay (hCat F)
Type: biochemical
Settings: Z-Phe-Arg-AMC substrate, pH 5.5, 15 min preincubation; read-out: hCat F (IP (nM))
quantity name: IC50 (nM)
Express your answer in nM, writing the number without its unit.

# molecule, val
records = [
    ("N#CC1(NC(=O)[C@@H]2CCCC[C@H]2c2nc(CC(F)(F)F)sc2-c2ccc(N3CCS(=O)(=O)CC3)cc2)CC1", 8520),
]

Okay, next one:
// N#CC1(NC(=O)[C@@H]2CCCC[C@H]2c2nc(C3CCCCO3)sc2-c2ccc(N3CCS(=O)(=O)CC3)cc2)CC1 (mixture of isomers) : IC50 value = 1930

* * *

Biological target: human cathepsin F (Homo sapiens, UniProt Q9UBX1)
Sequence (Q9UBX1 271-484): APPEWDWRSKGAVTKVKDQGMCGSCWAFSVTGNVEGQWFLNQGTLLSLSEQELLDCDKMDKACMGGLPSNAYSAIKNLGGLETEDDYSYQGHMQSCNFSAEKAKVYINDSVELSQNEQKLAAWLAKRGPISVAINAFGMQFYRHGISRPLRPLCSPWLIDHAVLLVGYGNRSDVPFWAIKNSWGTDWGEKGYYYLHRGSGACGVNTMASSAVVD
Test: Cathepsin F assay (hCat F)
Format: biochemical
Settings: Z-Phe-Arg-AMC substrate, pH 5.5, 15 min preincubation; read-out: hCat F (IP (nM))
Friendly reminder: IC50 below 2000 nM is Y, at or above is N.

Here's what some known entries look like.
# compound, qualitative label
measured = [
    ("N#CC(NC(=O)[C@@H]1CCCC[C@H]1c1nc(-c2ccc(F)cn2)sc1-c1ccc(N2CCS(=O)(=O)CC2)cc1)C1CCOCC1 (single isomer, unassigned) [Example 185]", "Y"),
    ("N#CC1(NC(=O)[C@@H]2CCCC[C@H]2c2nc(-c3ccc(Cl)cn3)sc2-c2ccc(N3CCS(=O)(=O)CC3)cc2)CC1", "Y"),
    ("N#CC1(NC(=O)[C@@H]2C[C@@H](F)CC[C@H]2c2nc(-c3ccc(F)cn3)sc2-c2ccc(N3CCS(=O)(=O)CC3)cc2)CC1", "N"),
    ("CC(C)(O)c1ccc(-c2nc([C@@H]3CCCC[C@H]3C(=O)NC3(C#N)CC3)c(-c3ccc(N4CCS(=O)(=O)CC4)cc3)s2)cc1", "Y"),
    ("N#CC1(NC(=O)[C@@H]2CCCC[C@H]2c2nc(CCC(F)(F)F)sc2-c2ccc(N3CCS(=O)(=O)CC3)cc2)CC1", "N"),
    ("N#CC1(NC(=O)[C@@H]2C[C@@H](F)CC[C@H]2c2nc(C3(C(F)(F)F)CC3)sc2-c2ccc(N3CCS(=O)(=O)CC3)cc2)CC1", "N"),
]

[ask] Dear colleague, could you confirm whether IC50 of "Cc1ccc(-c2nc([C@@H]3CC[C@H](F)C[C@H]3C(=O)NC3(C#N)CC3)c(-c3ccc(N4CCC(S(C)(=O)=O)CC4)cc3)s2)nn1" falls below 2000 nM? Thanks.
[reply] N

[ask] Dear colleague, could you confirm whether IC50 of "CC(C)[C@@H](C#N)NC(=O)[C@@H]1C[C@@H](F)CC[C@H]1c1nc(C(C)(C)C)oc1-c1ccc(N2CCS(=O)(=O)CC2)cc1" falls below 2000 nM? Thanks.
[reply] N

[ask] Dear colleague, could you confirm whether IC50 of "N#CC1(NC(=O)[C@@H]2CCCC[C@H]2c2nc(-c3cncc(F)c3)sc2-c2ccc(N3CCS(=O)(=O)CC3)cc2)CC1" falls below 2000 nM? Thanks.
[reply] Y

[ask] Dear colleague, could you confirm whether IC50 of "N#Cc1cc(F)ccc1-c1nc([C@@H]2CCCC[C@H]2C(=O)NC2(C#N)CC2)c(-c2ccc(N3CCS(=O)(=O)CC3)cc2)s1" falls below 2000 nM? Thanks.
[reply] N

[ask] Dear colleague, could you confirm whether IC50 of CC(C#N)NC(=O)[C@@H]1C[C@@H](F)CC[C@H]1c1nc(-c2cncc(F)c2)sc1-c1ccc(N2CCS(=O)(=O)CC2)cc1 (single isomer, unassigned) [Example 127] falls below 2000 nM? Thanks.
[reply] N
